molecular target: UniProt:Q4U254; assay: Inhibition of HRV14 3C protease at 0.1 uM; conditions: rhinovirus B14
Sequence (Q4U254 as listed by the source): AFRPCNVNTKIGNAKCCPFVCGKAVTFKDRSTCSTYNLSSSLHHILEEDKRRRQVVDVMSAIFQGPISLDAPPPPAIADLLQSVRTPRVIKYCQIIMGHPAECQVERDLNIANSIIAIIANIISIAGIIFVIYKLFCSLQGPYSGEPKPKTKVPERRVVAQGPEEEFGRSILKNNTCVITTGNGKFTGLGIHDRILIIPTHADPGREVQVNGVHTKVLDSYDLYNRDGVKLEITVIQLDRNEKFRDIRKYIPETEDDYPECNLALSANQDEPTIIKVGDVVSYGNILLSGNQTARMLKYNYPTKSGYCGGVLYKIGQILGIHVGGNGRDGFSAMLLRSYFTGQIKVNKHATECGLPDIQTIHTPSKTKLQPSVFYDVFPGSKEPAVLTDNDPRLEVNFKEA
Outcome: 1 (yes) for inhibition of at least 8%; 0 (no) for anything lower.

INSERT INTO assay_data (entry_smiles, category) VALUES
  ('NC(=O)c1cc(Cc2ccccc2)cc(C(=O)CBr)c1', '0 (no)'),
  ('NC(=O)c1cc(Cc2ccc3ccccc3c2)cc(C(=O)CBr)c1', '1 (yes)'),
  ('O=C(CBr)c1ccc2c(c1)C(=O)NC2', '0 (no)'),
  ('NC(=O)c1cc(C(=O)CBr)cc(C(=O)Nc2ccc3ccccc3c2)c1', '0 (no)'),
  ('NC(=O)c1cccc(C(=O)CBr)c1', '0 (no)'),
  ('NC(=O)c1cc(Cc2ccc3ccccc3c2)cc(C(=O)CCl)c1', '1 (yes)'),
  ('NC(=O)c1cc(Cc2ccccc2)cc(C(=O)C(Br)Br)c1', '1 (yes)'),
  ('NC(=O)c1cc(Cc2ccccc2)cc(C(=O)CCl)c1', '1 (yes)');

All figures here come from ChEMBL document CHEMBL1143989.
